# System: RPMI-8226 leukemia
# experiment: NCI tumour cell line growth inhibition, 48 h
# Lookup of reported TGI keyed by entry
measured_endpoint: TGI

smiles_structure: COc1cc2cc(C(=O)Nc3ccccc3)c(N)nc2cc1OC
measured_endpoint: TGI
result: > 100 µM

smiles_structure: CNC(=O)/C(C#N)=C(\N)N1CCCC1
measured_endpoint: TGI
result: > 100 µM

smiles_structure: Clc1cc2ns[s+]c2cc1Cl
measured_endpoint: TGI
result: > 100 µM

---

# System: OVCAR-3 ovarian
# experiment: NCI tumour cell line growth inhibition, 48 h
# cutoff 40 µM applies to TGI; >= gives Satisfied, < gives Not satisfied

molecule: O=S1(=O)CC#CC[C@@H](CO)[C@@H](CO)CC#CC1
discrete_label: Satisfied
//
molecule: CC(C)Cc1cc(-c2cccn2C)c(C#N)c(=O)[nH]1
discrete_label: Satisfied
//
molecule: C1=Nc2ccc(cc2)-c2ccc(cc2)N=Cc2ccccc2OCc2cccc(n2)COc2ccccc21
discrete_label: Satisfied
//
molecule: NC1=NN(c2ccccc2)C(=O)C1/C(=N\NC(=O)c1cc2ccccc2cc1O)C(=O)Nc1ccc(Cl)c(Cl)c1 (stereo unspecified)
discrete_label: Satisfied
//
molecule: CC(NC(=O)C(NC(=O)C(NC(=O)C(F)(F)F)C(C)C)C(C)C)C(=O)Oc1c(Cl)c(Cl)c(Cl)c(Cl)c1Cl (stereo unspecified)
discrete_label: Satisfied
//
molecule: CCCCCCCCCCCCCC(=O)OCC1OC(=O)C(O)C1O (stereo unspecified)
discrete_label: Satisfied
//
molecule: CN1CCN(CCCn2c3c(sc4ncccc43)c(=O)n3nnc(-c4ccccc4)c23)CC1
discrete_label: Not satisfied
//
molecule: Oc1ccc(Cl)cc1N=Nc1c(O)ccc2ccccc12
discrete_label: Satisfied
//
molecule: CCN1C(=O)N(CC)C2C1NN=c1s/c(=C\c3ccc(Br)cc3)c(=O)n12 (stereo unspecified)
discrete_label: Satisfied
//
molecule: CCN1CCC(O)(/C=C/c2ccc(Cl)c(Cl)c2)C(C(=O)/C=C/c2ccc(Cl)c(Cl)c2)C1 (stereo unspecified)
discrete_label: Not satisfied
//
molecule: CC1=NN(c2ccccc2)C(=O)C1N=Nc1ccc(Br)cc1C (stereo unspecified)
discrete_label: Satisfied
//
molecule: O=C(NNC(=O)c1ccccc1O)c1cccs1
discrete_label: Satisfied
//
molecule: COC(=O)C1(N2CCOCC2)CCC([C@@H](c2ccccc2)C(C)[N+](=O)[O-])C1 (stereo partly specified)
discrete_label: Satisfied
//
molecule: c1ccc2c(c1)CCCc1nnc3nc4ccccc4n3c1-2
discrete_label: Not satisfied
//
molecule: OCC1OC(n2cnc3cc(Cl)c(Cl)cc32)C(O)C1O (stereo unspecified)
discrete_label: Satisfied
//
molecule: CCN(CC)CCNC(=O)C1COc2ccc(-c3cc(=O)c4ccccc4o3)cc2O1 (stereo unspecified)
discrete_label: Satisfied
//
molecule: Oc1ccccc1-c1cnnc(-c2ccccc2O)c1
discrete_label: Satisfied
//
molecule: Cn1cc(-c2nc(-c3c[nH]c4ccccc34)cs2)c2cccnc21
discrete_label: Not satisfied
//
molecule: CCOC(=O)C(NS(=O)(=O)c1ccccc1)(C(F)(F)F)P(=O)(OCC(C)C)OCC(C)C (stereo unspecified)
discrete_label: Satisfied
//
molecule: COc1ccc(N2CCN(c3nc(-c4ccccn4)nc4sc5c(c34)CCCCCC5)CC2)cc1
discrete_label: Satisfied
//
molecule: Cc1cc(C2CC(O)C(CO)O2)c(Br)cc1Br (stereo unspecified)
discrete_label: Satisfied
//
molecule: C=C1C(O)C2OC(=O)C(=C)C2C(OC(=O)/C(C)=C/C)CC2(C)OC2C2OC12 (stereo unspecified)
discrete_label: Not satisfied
//
molecule: CNC(=O)/C(C#N)=C(\N)N1CCCC1
discrete_label: Satisfied
//
molecule: CN1C(=O)c2c(c3c4ccccc4n(C)c3c3c2c2ccccc2n3C)C1=O
discrete_label: Satisfied
//
molecule: CS(=O)(=O)Nc1cc(-c2ccc3ncnc(Nc4ccc(OCc5ccccn5)c(Cl)c4)c3c2)cnc1Cl
discrete_label: Not satisfied
//
molecule: O=C(Nc1ccn(C2CCC(COC(c3ccccc3)(c3ccccc3)c3ccccc3)O2)c(=O)n1)c1ccccc1 (stereo unspecified)
discrete_label: Not satisfied
